tgt: Acetylcholinesterase (Homo sapiens, UniProt P22303)
Sequence (P22303 whole entry): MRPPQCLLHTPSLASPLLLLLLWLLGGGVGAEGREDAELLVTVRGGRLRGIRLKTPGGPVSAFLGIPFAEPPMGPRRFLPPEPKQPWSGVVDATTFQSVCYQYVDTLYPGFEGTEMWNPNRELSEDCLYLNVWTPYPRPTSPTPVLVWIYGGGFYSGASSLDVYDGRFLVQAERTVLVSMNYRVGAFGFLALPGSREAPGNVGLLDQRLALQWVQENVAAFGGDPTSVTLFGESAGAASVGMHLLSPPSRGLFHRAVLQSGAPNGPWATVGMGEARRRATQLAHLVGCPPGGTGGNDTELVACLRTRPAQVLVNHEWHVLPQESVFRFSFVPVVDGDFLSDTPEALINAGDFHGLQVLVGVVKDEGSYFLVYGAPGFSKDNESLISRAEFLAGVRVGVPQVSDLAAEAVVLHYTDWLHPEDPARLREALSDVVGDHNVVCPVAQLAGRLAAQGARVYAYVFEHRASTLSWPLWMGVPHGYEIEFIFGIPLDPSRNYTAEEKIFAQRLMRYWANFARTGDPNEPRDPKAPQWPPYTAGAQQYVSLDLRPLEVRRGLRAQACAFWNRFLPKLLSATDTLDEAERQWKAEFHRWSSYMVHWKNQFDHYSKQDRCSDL
assay method text: Inhibition of human erythrocyte AChE using acetylthiocholine iodide as substrate preincubated for 10 mins followed by substrate addition measured after 15 mins by Ellman's method
experimental endpoint: IC50 (nM)
Just the number in nM, nothing appended.

These solved cases illustrate the format of a correct answer.
Exercise: I would be grateful if you could share the reported IC50 for COc1cc2c(cc1O)C(=O)C(CC1CCN(Cc3ccccc3)CC1)C2 (stereo unspecified) .
Key: 872

Exercise: Next compound up: COc1cc2c(cc1OCCCCCC1CCSS1)CC(CC1CCN(Cc3ccccc3)CC1)C2=O (stereo unspecified)
Key: 9.12

Exercise: Next compound up: COc1cc2c(cc1OCCCCCC1CCSS1)C(=O)C(CC1CCN(Cc3ccccc3)CC1)C2 (stereo unspecified)
Key: 7.63

Exercise: Next compound up: COc1cc2c(cc1OC(=O)CCCCC1CCSS1)C(=O)C(CC1CCN(Cc3ccccc3)CC1)C2 (stereo unspecified)
Key: 27.8

Exercise: Next compound up: COc1cc2c(cc1O)CC(CC1CCN(Cc3ccccc3)CC1)C2=O (stereo unspecified)
Key: 773

Could you now look at the following compound, please?
Exercise: I would be grateful if you could share the reported IC50 for O=C1c2cc(O)c(O)cc2CC1CC1CCN(Cc2ccccc2)CC1 (stereo unspecified) .
Key: 1810

Data credit: ChEMBL document CHEMBL6092143
